Reference source: paper PMC9090415

# targetOrTestSystem: P. falciparum apicoplast DNA polymerase (Pf-apPOL) (Plasmodium falciparum, UniProt Q8ILY1)
# Sequence (Q8ILY1 entry or part of it): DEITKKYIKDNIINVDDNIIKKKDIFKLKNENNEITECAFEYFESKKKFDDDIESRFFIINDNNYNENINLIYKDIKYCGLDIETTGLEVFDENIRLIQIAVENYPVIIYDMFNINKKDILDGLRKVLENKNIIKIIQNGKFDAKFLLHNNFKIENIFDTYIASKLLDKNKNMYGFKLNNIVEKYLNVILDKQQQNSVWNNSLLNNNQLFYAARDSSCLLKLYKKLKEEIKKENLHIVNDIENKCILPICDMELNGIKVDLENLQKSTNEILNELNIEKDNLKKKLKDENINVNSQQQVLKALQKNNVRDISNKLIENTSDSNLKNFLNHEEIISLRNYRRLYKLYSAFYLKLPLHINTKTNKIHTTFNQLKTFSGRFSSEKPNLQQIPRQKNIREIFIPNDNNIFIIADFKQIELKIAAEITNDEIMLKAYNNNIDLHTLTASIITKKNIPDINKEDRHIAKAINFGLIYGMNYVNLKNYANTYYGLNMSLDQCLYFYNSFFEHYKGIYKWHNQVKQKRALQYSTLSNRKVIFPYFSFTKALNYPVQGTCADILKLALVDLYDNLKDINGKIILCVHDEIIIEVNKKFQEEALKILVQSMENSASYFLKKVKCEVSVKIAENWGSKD
# assaySummary: Fluorescence-based high-throughput DNA polymerase assay (molecular beacon), primary screen and dose-response
# Format: biochemical
# assayContext: DRC-2; 5'; conc 10
# From the text: The HT assay employs a molecular beacon, a stem-loop DNA template with a Cy3 dye and the Black Hole Quencher on the 3′ and 5′ ends of the DNA, respectively. Pf-apPOL concentration is based on a calculated absorptivity of ε280 = 56750 M^−1 cm^−1. […] To identify apPOL inhibitors we utilised our previously developed high-throughput DNA polymerase assay. […] The assay accurately recapitulates the kinetic behaviour of apPOL, as measured through more conventional low-throughput gel-based assays. […]
parameterMeasured: % inhibition Apo pol 5'

Cc1ccc(CNC(=O)c2cnn3c(O)cc(CSc4ccc(Cl)cc4)nc23)cc1 [Molecule 99]
44%
COc1ccccc1C1CC(=O)Oc2cc3c(cc21)OCO3 (stereo not shown) [KU0104502]
50%
CCOc1nc2cccc(C(=O)OC(C)OC(=O)OC3CCCCC3)c2n1Cc1ccc(-c2ccccc2-c2nnn[nH]2)cc1 (stereo not shown) [Molecule 94]
46%
O=C1Nc2ccc(I)cc2C1=Cc1cc(Br)c(O)c(Br)c1 [Molecule 27]
38%
